Below, each of the molecules is paired with its reported log10 GI50 value.
test system: NCI-60 standardized human tumor cell line panel; experiment: cells; format: cell-based; conditions: HL-60(TB); AZI sheet; read-out: GI50
measurement-type: log10 GI50 (log10 of the value in nM)

CN1CCN(C(=O)Oc2cc3c(c4ccccc24)C(CCl)CN3C(=O)c2cc3cc(OCCCN4CCC4)ccc3[nH]2)C2CSSCC21 (mixture of isomers) [Me-SS66C-CBI-AZI]
1.46
CN(CCSSCCN1CCOCC1)C(=O)Oc1cc2c(c3ccccc13)[C@H](CCl)CN2C(=O)c1cc2cc(OCCCN3CCC3)ccc2[nH]1 [SS00M-CBI-AZI]
2.11
CN1CCN(C(=O)Oc2cc3c(c4ccccc24)C(CCl)CN3C(=O)c2cc3cc(OCCCN4CCC4)ccc3[nH]2)C2CSSCC21 (mixture of isomers) [Me-SS66T-CBI-AZI]
1.00
O=C(c1cc2cc(OCCCN3CCC3)ccc2[nH]1)N1C[C@@H](CCl)c2c1cc(OCc1ccccc1)c1ccccc21 [OBn-CBI-AZI]
2.64
CN1CCN(C(=O)CCN(C(=O)Oc2cc3c(c4ccccc24)[C@H](CCl)CN3C(=O)c2cc3cc(OCCCN4CCC4)ccc3[nH]2)[C@H]2CCSSC2)CC1 [P-SS60-CBI-AZI]
2.59
